Taken from paper PMC6271731.

# TARGET_OR_SYSTEM: pancreatic bovine trypsin (Bos taurus)
# Construct: purchased Sigma Chemical, Co. (St. Louis, MO, USA)
# Sequence (P00760 24-246): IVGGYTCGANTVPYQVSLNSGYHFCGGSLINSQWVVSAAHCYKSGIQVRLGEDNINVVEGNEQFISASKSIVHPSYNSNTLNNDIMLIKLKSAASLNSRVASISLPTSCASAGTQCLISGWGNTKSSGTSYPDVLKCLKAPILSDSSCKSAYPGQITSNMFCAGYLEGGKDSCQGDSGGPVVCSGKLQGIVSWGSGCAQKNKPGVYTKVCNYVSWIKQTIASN
# ASSAY: Inhibition of trypsin induced proteolysis in vitro
# Assay type: biochemical
# CONDITION_NOTES: bovine albumin substrate, pH 7.6, 37 °C; read-out: IC50 μM Trypsin Inh.
Decide using IC50 alone. Strictly below 40 µM: T. Equal to or above 40 µM: F.

O=C(O)/C=C/c1ccccc1 | F
CC(=O)Nc1ccc(OC(=O)/C=C/c2cccc(Oc3ccccc3)c2)cc1 | T
Cc1cc(=O)oc2cc(OC(=O)/C=C/c3ccc(OCc4ccc(Br)cc4)cc3)ccc12 | T
O=C(/C=C/c1cccc(Oc2ccccc2)c1)Oc1cc(=O)oc2ccccc12 | F
O=C(/C=C/c1cccc(Oc2ccccc2)c1)Oc1ccc2ccc(=O)oc2c1 | T

// next entry
Does the reported IC50 of `O=C(/C=C/c1cccc(Oc2ccccc2)c1)Nc1cccc(OC(=O)/C=C/c2cccc(Oc3ccccc3)c2)c1` stay below 40 µM?
F
